These measurements were taken from the supplement of paper PMC9170038.

Tested on: MS2 coat protein
Assay: apparent KD of MS2 coat protein; designed switch direction (-1 OFF switch, 1 ON switch): -1; higher = weaker reporter binding
Conditions: input ligand: microRNA oligo, concentration not stated
READOUT TYPE: apparent KD of MS2 coat protein (nM)

INSERT INTO results (sequence, assayed_target, readout_type, quantity_unit, value_observed) VALUES
  ('CCUAGUUGGUAAGGAUAUCCUACACUGUUCUGACCCGGGCAAGCUACAUGAGGAUCACCCAUGUGGGAGAAGGUGCGUCAACGC [Design 13] (Eterna round: R96, puzzle: Exclusion NG 2)', 'MS2 coat protein', 'apparent KD of MS2 coat protein', 'nM', 22.2),
  ('AUUAUAAAGGCAGGAUAUACAUGAGGAUCACCCAUGUAUAUCCGAUAAUAAUAUAAGUGCCUCAUGUAGAAGGGCCAUUAUAUA [Same State Mistake] (Eterna round: R96, puzzle: Exclusion NG 2)', 'MS2 coat protein', 'apparent KD of MS2 coat protein', 'nM', 8.76),
  ('AUCGUGCAGCAAAGCUGUACGAGUACAUGAGGAUCACCCAUGUAGGAUAUGGUACGCAAAGCGUGCUAGAAGGAUAUGAGAUUU [Mat - Exclusion NG 3 - Mod of JL - D100] (Eterna round: R96, puzzle: Exclusion NG 3)', 'MS2 coat protein', 'apparent KD of MS2 coat protein', 'nM', 27.8);
